Origin of the recorded values: patent US8399465B2

targetOrTestSystem: recombinant human LTA4 hydrolase (rhLTA4H) (Homo sapiens)
Construct: made in house; host or cells: Spodoptera frugiperda (Sf-9) cells, baculovirus (pFastBac1)
Sequence (P09960 whole entry): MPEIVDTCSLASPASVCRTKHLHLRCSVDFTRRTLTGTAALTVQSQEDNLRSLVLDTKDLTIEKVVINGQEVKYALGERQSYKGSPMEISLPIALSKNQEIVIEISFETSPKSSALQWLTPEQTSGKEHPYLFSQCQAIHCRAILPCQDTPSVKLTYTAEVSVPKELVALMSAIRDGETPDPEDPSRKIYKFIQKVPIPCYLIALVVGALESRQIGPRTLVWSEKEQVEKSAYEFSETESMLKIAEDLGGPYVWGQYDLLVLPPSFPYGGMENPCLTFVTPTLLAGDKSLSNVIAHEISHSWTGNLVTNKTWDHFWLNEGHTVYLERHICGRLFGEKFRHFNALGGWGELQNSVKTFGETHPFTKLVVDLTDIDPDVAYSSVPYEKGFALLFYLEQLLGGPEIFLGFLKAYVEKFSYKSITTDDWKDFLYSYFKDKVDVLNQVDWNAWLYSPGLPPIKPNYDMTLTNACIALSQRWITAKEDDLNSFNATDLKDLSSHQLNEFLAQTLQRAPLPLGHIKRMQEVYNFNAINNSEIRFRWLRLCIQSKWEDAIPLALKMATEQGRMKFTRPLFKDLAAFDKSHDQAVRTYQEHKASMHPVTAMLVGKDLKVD
assayNotes: Recombinant human LTA4 hydrolase assay for LTA4 hydrolase inhibitor activity
Format: biochemical
conditionInfo: rhLTA4H, LTB4 by immunoassay; single determination or average of two or more; mark after value = form tested: ′ free base, ″ hydrochloride, ^ formate; read-out: IC50
pIC50: −log10 of the molar value. Where a name gives a salt, the structure may show the parent alone.
Decide by pIC50: equal to or exceeding 8 means true (1), less means false (0).

Clc1cnc2nc(Oc3ccc4c(CN5CCOCC5)c[nH]c4c3)sc2c1; false (0)

query: Hi, just wondering whether c1ccc2sc(Oc3ccc4[nH]c(CN5CCCC5)cc4c3)nc2c1 shows pIC50 of 8 or higher.
result: false (0)

query: Record CC(C)CNCc1coc2cc(Oc3nc4ncccc4s3)ccc12 [Example 304, formate] ; criterion: pIC50 no lower than 8. Met?
result: true (1)

query: Check the entry O=C(C1CCN(Cc2c[nH]c3cc(Oc4nc5ccccc5s4)ccc23)CC1)N1CCCC1 : does pIC50 equal or exceed 8?
result: true (1)

query: Hi, just wondering whether CC(=O)NC1CCN(Cc2coc3cc(Oc4nc5ncc(C)cc5s4)ccc23)CC1 [Example 251, formate] shows pIC50 of 8 or higher.
result: false (0)

query: Kindly determine if pIC50 recorded for CS(=O)(=O)NCCC1CCN(Cc2coc3cc(Oc4nc5ccccc5s4)ccc23)CC1 is above or exactly 8.
result: false (0)

query: Given O=C1Cc2cc(C(F)(F)F)ccc2N1Cc1coc2cc(Oc3nc4ncccc4s3)ccc12 , state whether its pIC50 is at least 8.
result: false (0)

query: Evaluate CS(=O)(=O)NC1CCN(Cc2coc3cc(Oc4nc5ncccc5s4)ccc23)CC1 : pIC50 at minimum 8?
result: true (1)

====

Tested on: LTB4 production in murine blood (LTA4H)
assayNotes: LTB4 production by calcium ionophore-stimulated murine blood for LTA4H inhibitor activity
Type: cell-based, CD-1 mice
conditionInfo: Mus musculus; murine blood diluted 1 in 15, A23187 stimulated; single determination or average; mark after value = form tested: ′ free base, ″ hydrochloride, ^ formate; read-out: IC50
Counter-ions that a name gives are not always drawn.
Each item that follows carries a reported log10(IC50).
Form field - Quantity: IC50; Unit: nM; Scale: log10

Known log10(IC50) results, listed for orientation:
CC(=O)NC1CCN(Cc2coc3cc(Oc4nc5nccnc5s4)ccc23)CC1 [Example 253, formate]; 1.96
c1ccc2sc(Oc3ccc4[nH]c(CN5CCCCC5)cc4c3)nc2c1; 3.05
CNC(=O)C1CCN(Cc2c[nH]c3cc(Oc4nc5ccccc5s4)ccc23)CC1; 1.90
CC(C)CNCc1coc2cc(Oc3nc4ncccc4s3)ccc12 [Example 304, formate]; 1.38
C[C@H]1COCCN1Cc1c[nH]c2cc(Oc3nc4ncccc4s3)ccc12; 1.53

query: Returns the measured log10(IC50) for the input molecule. Input: CC(=O)N[C@H]1C[C@@H]2C[C@H]1CN2Cc1cc2ccc(Oc3nc4ncccc4s3)cc2o1
result: 1.85

query: // returns reported log10(IC50) for input FC1(F)CN(Cc2coc3cc(Oc4nc5ncccc5s4)ccc23)C1
result: 2.08

query: For the molecule shown here, CC(=O)N[C@@H]1C[C@H]2CC[C@@H](C1)N2Cc1cc2cc(Oc3nc4ncccc4s3)ccc2o1 , give the reported log10(IC50).
result: 1.20

query: Name the reported log10(IC50) value associated with the molecule CC(=O)N1CCCN(Cc2coc3cc(Oc4nc5ncccc5s4)ccc23)CC1
result: 1.59

query: Need log10(IC50), item COC(=O)CC1CCN(Cc2c[nH]c3cc(Oc4nc5ccccc5s4)ccc23)CC1
result: 2.81
